- Test system: MDA-MB-435
Form entry, call: pick from 1.0 for active, 0.0 for inactive

The examples below pair each entry with its known result.
Cc1cc(Nc2nc(N[C@@H](C)c3ncc(F)cn3)ncc2Cl)n[nH]1 = 0.0
COc1cc(C2c3cc4c(cc3C(OC(=O)C[n+]3ccccc3)C3COC(=O)C23)OCO4)cc(OC)c1OC (stereo not given) = 1.0
Cn1cc(-c2cnn3c(N)c(Br)c(C4CCCNC4)nc23)cn1 (stereo not given) = 0.0
O=C(NCC1CCCO1)c1ccc(NC2=C(Cl)C(=O)N(Cc3ccccc3)C2=O)cc1 (stereo not given) = 0.0
Cc1cc(C)c(-c2c(N)cc(Br)cc2Br)c(N)c1 = 0.0
CCCCCCCC/C=C/CCCCCCCC1=NC(C)(C)CN1CCO = 0.0
COc1cccc(Nc2nc3ccccc3c3occc23)c1 = 0.0
CCOc1ccn(-c2ccc(F)cc2)c(=O)c1C(=O)Nc1ccc(Oc2ccnc(N)c2Cl)c(F)c1 = 0.0
CCNC(=O)Oc1ccc(/C(=C(/C)Cc2ccc(OC)cc2)c2ccc(OCCN(CC)CC)cc2)cc1 = 0.0

Lab note: next molecule to report on.
Please share the test call associated with Cc1cc2c(-c3nc4ccccn4c3N)c(O)c(O)cc2c(O)c1-c1c(C)cc2c(-c3nc4ccccn4c3N)c(O)c(O)cc2c1O .
0.0
